- test_description: Inhibition of human platelet Prostaglandin G/H synthase at the concentration of 10 uM
Please mark criterion met if the recorded inhibition is equal to or greater than 80%, and criterion not met if it falls below.

Illustrative cases are given below, each with its answer.
- smiles_repr: "Cc1cc(/C=C/c2cc(F)cc(F)c2)cc(C)c1O"
  qualitative_label: "criterion not met"
- smiles_repr: "COc1ccc(/C=C/c2cc(C(C)C)c(O)c(C(C)C)c2)cc1"
  qualitative_label: "criterion met"
- smiles_repr: "Cc1cc(/C=C/c2ccc(C(=O)O)cc2)cc(C)c1O"
  qualitative_label: "criterion not met"
- smiles_repr: "Cc1cc(/C=C/c2cccc(C(=O)O)c2)cc(C)c1O"
  qualitative_label: "criterion not met"
- smiles_repr: "Cc1cc(/C=C/c2ccc3ccccc3c2)cc(C)c1O"
  qualitative_label: "criterion not met"

Assess whether reported inhibition for Cc1cc(/C=C/c2ccncc2)cc(C)c1O sits at 80% or higher.
criterion not met

Assess whether reported inhibition for CCc1cc(/C=C/c2cccs2)cc(CC)c1O sits at 80% or higher.
criterion met

Assess whether reported inhibition for CCc1cc(/C=C/c2ccc(C)cc2)cc(CC)c1O sits at 80% or higher.
criterion not met

Assess whether reported inhibition for CC(C)c1cc(/C=C/c2ccc(F)cc2)cc(C(C)C)c1O sits at 80% or higher.
criterion not met

Assess whether reported inhibition for Cc1cc(/C=C/c2c(F)cccc2F)cc(C)c1O sits at 80% or higher.
criterion met

Assess whether reported inhibition for Cc1cc(C(=O)c2cccs2)cc(C)c1O sits at 80% or higher.
criterion met
